src = ChEMBL document CHEMBL1201862

- System: NCI-H23
- test-protocol: NCI tumour cell line growth inhibition, 48 h
The source made the active and inactive calls. Cut-off read from the data, not from the text of the source: active = GI50 up to about 1.1 µM and inactive = higher.
measured-property: GI50

Example molecules with recorded GI50:
[
  {
    "molecule": "CCC(O)CCCCCCCCCCCCCCC(=O)O (configuration not stated)",
    "value-observed": "> 100 µM (inactive)"
  },
  {
    "molecule": "CCN(CC)CCCNC(=O)C1COc2cc(-c3cc(=O)c4ccccc4o3)ccc2O1 (configuration not stated)",
    "value-observed": "> 100 µM (inactive)"
  },
  {
    "molecule": "CNc1ncc(-c2nnnn2-c2ccccc2)c(CN(C)C)n1",
    "value-observed": "> 100 µM (inactive)"
  },
  {
    "molecule": "CC(C)Cc1cc(CCC(=O)Nc2ccccc2[N+](=O)[O-])nc(NC#N)n1",
    "value-observed": "> 100 µM (inactive)"
  },
  {
    "molecule": "CCN(CC)C(=S)SC(=S)N(CC)CC",
    "value-observed": "26.2 µM (inactive)"
  }
]

Lookup: GI50 / NCI-H23 / CCOc1ccc2nc(NC(=O)C(=O)C(C(=O)c3ccccc3-c3ccccc3)C3OC(=O)c4ccccc43)sc2c1 (configuration not stated) 17.9 µM (inactive)

N#CC1(C#N)NC(c2ccccc2)C(C#N)(C#N)NC1c1ccccc1 (configuration not stated) , same question. > 100 µM (inactive)

What about this molecule? Cc1ccc(C(=O)C2=CN=C3C(=O)N(c4ccccc4)N(C)C3(C)C2=N)cc1 (configuration not stated) > 100 µM (inactive)

Note, next up: Nc1ncnc2c1ncn2C1OC(CO)C(O)C1N (configuration not stated) > 100 µM (inactive)

And the next one, CCOC(=O)C1=CNC(C(=O)OCC)C1c1cccn1-c1ccccc1 (configuration not stated) ? 37.7 µM (inactive)

`CC1(C)C(c2ccccc2)=NN(O)c2ccccc21` , same question. > 100 µM (inactive)

// repeat for CC1=NN(C(=O)CC(=O)Nc2cccc(C)c2)C(=O)C1/N=N/c1ccc(C(=O)O)cc1 (configuration not stated) and report > 100 µM (inactive)

Would you mind doing `Cn1c(N)c(Cc2ccc(Cl)cc2)c(=O)[nH]c1=O` as well? > 100 µM (inactive)

What about `COc1ccc(/C=C2\C(=O)N(NC(C)=O)c3ccccc32)cc1` ? > 100 µM (inactive)

Also need `Cc1cc(=O)n2c(cc3cccccc32)n1` , thanks. > 100 µM (inactive)

Let us now turn to `COc1ccc(NC(=S)N/N=C2\C(=O)Nc3ccccc32)cc1` 14.7 µM (inactive)

Please give the result for C[C@]1(CO)CCC[C@@]2(C)C1CC[C@H]1CC3C[C@]12CC[C@]3(C)O (some centres not stated) too. 83.8 µM (inactive)

====

- Test system: LOX IMVI
- test-protocol: NCI tumour cell line growth inhibition, 48 h
Calls of active or inactive are those of the source. Rule as the data show it: active = GI50 up to about 1.1 µM and inactive = higher.
Each entry below lists one item and its recorded GI50 value.

So what's the measured GI50 for this one? `Nc1c(-c2ccc(Cl)cc2)[n+]([O-])c2ccccc2[n+]1[O-]` > 100 µM (inactive)

Repeat for the following compound: `COc1ccc(Cn2nc(OCc3ccccn3)c3cc([N+](=O)[O-])ccc32)cc1` > 100 µM (inactive)

====

Listed next: entries and their corresponding GI50.
- Test system: UACC-62
- test-protocol: NCI tumour cell line growth inhibition, 48 h
Calls of active or inactive are those of the source. No stated cut-off is given here; in the data, active = GI50 up to about 1.1 µM and inactive = higher.

State the recorded GI50 for this entry: CC[C@@]1(O)C(=O)OCc2c1cc1n(c2=O)Cc2c-1nc1ccccc1c2/C=N\NC(=O)C(N)CO (stereo not given in full) < 0.0395 µM (active)

Please do the same for `COc1cc(C)c(O)c(C(=O)O)c1` as well. > 100 µM (inactive)

Same read-out for O=C1c2ccccc2C(=O)c2c(NC(=O)C(Cl)CCl)cccc21 (stereo not given) ? 10.1 µM (inactive)
